- Test system: MDR1 (P-gp)
- experiment: Blood-brain-barrier (BBB) penetration potential via MDCK-MDR1 permeability assay
- study_conditions: dog, MDCK-MDR1, pH 7.4, MDCK-MDR1: Papp A-B, A-B
Response field class: enum, chosen by comparing Papp A→B at 120 min, 5 μM against bin 0 (below 0.6 ×10⁻⁶ cm/s), bin 1 (0.6 ×10⁻⁶ cm/s to below 5 ×10⁻⁶ cm/s), bin 2 (5 ×10⁻⁶ cm/s or more)

[
  {
    "compound": "Cc1nc2cc(-c3ccc(N(C)[C@H]4C[C@@H]5CC[C@@H](N5)[C@H]4F)nn3)c(O)cc2c(=O)n1C [Compound 114B]",
    "system_name": "MDR1 (P-gp)",
    "discrete_label": "bin 0"
  }
]

Which class holds Cc1cc(=O)c2cc(-c3ccc(N(C)[C@@H]4C[C@H]5CC[C@@H]([C@@H]4F)N5C)nn3)c(O)cc2o1 [Compound 100A] ?
bin 2

Class? Entry: CN(c1ccc(-c2cc3ncn(C)c(=O)c3cc2O)nn1)[C@@H]1C[C@H]2CC[C@@H]([C@@H]1F)N2C [Compound 101A]
bin 1

Place this compound in its band: Cc1nc2cc(-c3ccc(N(C)[C@H]4C[C@@H]5CC[C@@H](N5)[C@H]4F)nn3)c(O)cc2s1 [Compound 115B]
bin 2

Assign a bin to Cc1nc2cc(-c3ccc(N(C)[C@@H]4C[C@H]5CC[C@H](N5)[C@@H]4F)nn3)c(O)cc2c(=O)n1CC(F)(F)F [Compound 113A]
bin 0

# classify by Papp A→B at 120 min, 5 μM band: Cc1nc2cc(O)c(-c3ccc(N(C)[C@H]4C[C@@H]5CC[C@@H](N5)[C@H]4F)nn3)cc2o1 [Compound 117B]
bin 1

Exam item: assign Cc1nc2cc(O)c(-c3ccc(N(C)[C@@H]4C[C@H]5CC[C@H](N5)[C@@H]4F)nn3)cc2o1 [Compound 117A] to the correct category.
bin 2

Textbook exercise: identify the category of the compound given here, Cc1nc2cc(-c3ccc(N(C)[C@H]4C[C@@H]5CC[C@@H](N5)[C@H]4F)nn3)c(O)cc2c(=O)n1CC(F)(F)F [Compound 113B] , according to its measured value.
bin 0

Looking at CN(c1ccc(-c2cc3cnccc3cc2O)nn1)[C@@H]1C[C@H]2CCC[C@H](N2)[C@@H]1F [Compound 121A] , which class would you pick?
bin 1

###

- Tested on: MDR1 (P-gp)
- experiment: Blood-brain-barrier (BBB) penetration potential via MDCK-MDR1 permeability assay
- study_conditions: dog, MDCK-MDR1, pH 7.4, MDCK-MDR1: Papp B-A, B-A direction
value_kind: Papp B→A at 120 min, 5 μM

# example entries with known answers
[
  {
    "compound": "COc1cnc(-c2ccc(-c3ccc(N(C)[C@H]4C[C@@H]5CCC[C@@H](N5)[C@H]4F)nn3)c(O)c2)cn1 [Compound 29B]",
    "system_name": "MDR1 (P-gp)",
    "Papp B→A at 120 min, 5 μM": "5.63 ×10⁻⁶ cm/s"
  },
  {
    "compound": "CN(c1ccc(-c2ccc(-n3ccnn3)cc2O)nn1)[C@H]1C[C@@H]2CC[C@@H](N2)[C@H]1F [Compound 61B]",
    "system_name": "MDR1 (P-gp)",
    "Papp B→A at 120 min, 5 μM": "45.8 ×10⁻⁶ cm/s"
  }
]

In the following, a different compound is considered.
Bench note: what Papp B→A at 120 min, 5 μM did CN(c1ccc(-c2cc3ncn(CC(F)(F)F)c(=O)c3cc2O)nn1)[C@@H]1C[C@H]2CCC[C@H](N2)[C@@H]1F [Compound 58A] show?
71.4 ×10⁻⁶ cm/s

###

- System: MDR1-MDCK cell monolayers
- experiment: Blood-brain-barrier (BBB) penetration potential via MDCK-MDR1 permeability assay
- study_conditions: B-A direction
value_kind: MDCK-MDR1: % Recov B-A
Answer with the number, then the unit.

These solved cases illustrate the format of a correct answer.
[
  {
    "compound": "CN(c1ccc(-c2ccc(-c3ccccn3)cc2O)nn1)[C@@H]1C[C@H]2CCC[C@H](N2)[C@@H]1F [Compound 23A]",
    "assay_value": "83%"
  },
  {
    "compound": "COc1cn(-c2ccc(-c3ccc(N(C)[C@H]4C[C@@H]5CC(F)(F)[C@H](C4)N5)nn3)c(O)c2)cn1 [Compound 19B]",
    "assay_value": "88%"
  },
  {
    "compound": "CN(c1ccc(-c2ccc(-n3ccnc3)cc2O)nn1)[C@@H]1C[C@H]2CC[C@H](N2)[C@@H]1F",
    "assay_value": "73%"
  }
]

Turning to the following compound.
Name the reported MDCK-MDR1: % Recov B-A value associated with the compound CN(C)C(=O)c1cc2cc(O)c(-c3ccc(N(C)[C@H]4C[C@@H]5CC[C@@H](N5)[C@H]4F)nn3)cc2o1
100%

###

Property: Papp A→B at 120 min, 5 μM; scope: individual compounds
- System: MDR1 (P-gp)
- experiment: Blood-brain-barrier (BBB) penetration potential via MDCK-MDR1 permeability assay
- study_conditions: dog, MDCK-MDR1, pH 7.4, MDCK-MDR1: Papp A-B, A-B
Please respond with the number in ×10⁻⁶ cm/s and leave the unit unwritten.

Some solved entries appear below for comparison.
[
  {
    "compound": "CN(c1ccc(-c2cc3oc(C(=O)N4CCC4)cc3cc2O)nn1)[C@H]1C[C@@H]2CC[C@H]([C@H]1F)N2C [Compound 107B]",
    "system_name": "MDR1 (P-gp)",
    "Papp A→B at 120 min, 5 μM [×10⁻⁶ cm/s]": 0.99
  },
  {
    "compound": "Cc1cc(=O)c2cc(O)c(-c3ccc(N(C)[C@H]4C[C@@H]5CC[C@H]([C@H]4F)N5C)nn3)cc2o1 [Compound 99B]",
    "system_name": "MDR1 (P-gp)",
    "Papp A→B at 120 min, 5 μM [×10⁻⁶ cm/s]": 2.74
  },
  {
    "compound": "CN(c1ccc(-c2cc3c(=O)n(C)cnc3cc2O)nn1)[C@H]1C[C@@H]2CC[C@H]([C@H]1F)N2C [Compound 102B]",
    "system_name": "MDR1 (P-gp)",
    "Papp A→B at 120 min, 5 μM [×10⁻⁶ cm/s]": 1.63
  }
]

Could you now look at the following compound, please?
State the recorded Papp A→B at 120 min, 5 μM for this entry: CN(c1ccc(-c2cc3ccncc3cc2O)nn1)[C@@H]1C[C@H]2CC(F)(F)[C@@H](C1)N2 [Compound 125A]
14.1

###

Recorded MDCK-MDR1: % Recov A-B, one value per entry.
- System: MDR1-MDCK cell monolayers
- experiment: Blood-brain-barrier (BBB) penetration potential via MDCK-MDR1 permeability assay
- study_conditions: A-B direction
Dear colleague, please return just the value in %, with no unit written.

[
  {
    "compound": "CC#Cc1ccc(-c2ccc(N(C)C3CC4CCC(N4)C3F)nn2)c(O)c1 (single isomer, unassigned) [Compound 30B]",
    "assay_value": 38
  },
  {
    "compound": "CN(c1ccc(-c2ccc(-c3cn[nH]c3)cc2O)nn1)[C@H]1C[C@@H]2CC[C@@H](N2)[C@H]1F (single isomer, unassigned) [Compound 42B]",
    "assay_value": 78
  },
  {
    "compound": "CN(c1ccc(-c2ccc(-n3ccnn3)cc2O)nn1)[C@H]1C[C@@H]2CC[C@@H](N2)[C@H]1F [Compound 61B]",
    "assay_value": 98
  }
]

So what's the measured MDCK-MDR1: % Recov A-B for this one? COc1cnc(-c2ccc(-c3ccc(N(C)[C@H]4C[C@@H]5CCC[C@@H](N5)[C@H]4F)nn3)c(O)c2)cn1 [Compound 29B]
21

###

- Test system: mHTT protein in GM04724 (CAG 70/20) Huntington's disease patient lymphoblast cells
- experiment: mHTT protein assay, 2B7-MW1 assay via Mesoscale Discovery (MSD)
- Format: cell-based, human
- study_conditions: GM04724 Huntington's disease patient lymphoblasts
// EC50 lookup, one value per entry

Solved cases (5 shown):
[
  {
    "molecule": "CCc1cn(-c2ccc(-c3ccc(N(C)[C@H]4C[C@@H]5CC(F)(F)[C@H](C4)N5)nn3)c(O)c2)cn1 [Compound 18B]",
    "EC50": "101 to 500 nM"
  },
  {
    "molecule": "CN(c1ccc(-c2cc3ncn(CC(F)(F)F)c(=O)c3cc2O)nn1)[C@@H]1C[C@H]2CC[C@H](N2)[C@@H]1F [Compound 81A]",
    "EC50": "101 to 500 nM"
  },
  {
    "molecule": "CN(c1ccc(-c2cc3c(=O)n(C)cnc3cc2O)nn1)[C@@H]1C[C@H]2CC[C@H](N2)[C@@H]1F [Compound 85A]",
    "EC50": "0.01 to 15 nM"
  },
  {
    "molecule": "CN(c1ccc(-c2cc3ncccc3cc2O)nn1)[C@@H]1C[C@H]2CCC[C@H](N2)[C@@H]1F [Compound 78A]",
    "EC50": "16 to 50 nM"
  },
  {
    "molecule": "CN(c1ccc(-c2ccc(-c3cnccn3)cc2O)nn1)[C@H]1C[C@@H]2CCC[C@@H](N2)[C@H]1F [Compound 24B]",
    "EC50": "0.01 to 15 nM"
  }
]

Name the reported EC50 value associated with the molecule COc1cn(-c2ccc(-c3ccc(N(C)[C@@H]4C[C@H]5CC(F)(F)[C@@H](C4)N5)nn3)c(O)c2)cn1 [Compound 19A]
51 to 100 nM

Form field: reported EC50 of Cc1cc(=O)c2cc(-c3ccc(N(C)[C@H]4C[C@@H]5CC[C@@H](N5)[C@H]4F)nn3)c(O)cc2o1 [Compound 50B]
0.01 to 15 nM
